Biological target: PTP-1B (Homo sapiens)
Sequence (P18031 3-277 limits assumed): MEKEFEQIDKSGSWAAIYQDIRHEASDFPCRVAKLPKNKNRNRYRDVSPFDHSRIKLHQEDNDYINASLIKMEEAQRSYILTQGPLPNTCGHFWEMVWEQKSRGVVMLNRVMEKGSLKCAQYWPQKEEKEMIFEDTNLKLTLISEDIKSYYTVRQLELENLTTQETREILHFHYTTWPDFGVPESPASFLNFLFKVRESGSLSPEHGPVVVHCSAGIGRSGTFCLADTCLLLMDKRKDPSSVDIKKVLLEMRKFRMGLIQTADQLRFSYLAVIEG
IC50 values by entry
MEASURED_PARAMETER: IC50 (nM)

>>> readout_value("Cn1cc(-c2nc(-c3ccc(/C=C/C(=O)O)cc3)c(-c3ccc(/C=C/C(=O)O)cc3)[nH]2)c2ccccc21 [Compound 74]")
640
>>> readout_value("O=C(O)/C=C/c1ccc(-c2nc(-c3ccc4ccc5cccc6ccc3c4c56)[nH]c2-c2ccc(/C=C/C(=O)O)cc2)cc1 [Compound 80]")
10000
>>> readout_value("O=C(O)/C=C/c1ccc(-c2nc(-c3ccc(C(=O)O)cc3)[nH]c2-c2ccc(/C=C/C(=O)O)cc2)cc1 [Compound 54]")
72
>>> readout_value("O=C(O)/C=C/c1ccc(-c2nc(-c3cccc(F)c3)[nH]c2-c2ccc(/C=C/C(=O)O)cc2)cc1 [Compound 61]")
970
>>> readout_value("O=C(O)/C=C/c1ccc(-c2nc(-c3cc(Cl)cc(Cl)c3Cl)[nH]c2-c2ccc(/C=C/C(=O)O)cc2)cc1 [Compound 82]")
11900
>>> readout_value("O=C(O)/C=C/c1ccc(-c2nc(-c3ccc(OCc4ccccc4)cc3)[nH]c2-c2ccc(/C=C/C(=O)O)cc2)cc1 [Compound 87]")
1000
>>> readout_value("N#Cc1ccc(-c2nc(-c3ccc(/C=C/C(=O)O)cc3)c(-c3ccc(/C=C/C(=O)O)cc3)[nH]2)cc1 [Compound 73]")
620

Data provenance: patent US20020183518A1
